Attribution: the supplement of paper PMC6555819

system: PPARg homodimer (NR concentration 180 nM); assay: PBM binding z-score (relative to random genomic background probes); higher = stronger binding; sequences stand for … in GC…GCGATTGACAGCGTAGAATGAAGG
Kindly return YES if reported PBM binding z-score is no lower than 0.09; return NO if it is lower.

Field: example entries. Status: answers known.
monomer.sequence: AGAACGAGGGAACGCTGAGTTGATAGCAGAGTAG
class.assignment: NO

monomer.sequence: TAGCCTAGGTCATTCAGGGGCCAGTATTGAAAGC
class.assignment: YES

monomer.sequence: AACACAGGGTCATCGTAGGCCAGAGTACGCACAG
class.assignment: YES

monomer.sequence: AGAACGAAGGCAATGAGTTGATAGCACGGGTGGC
class.assignment: NO

monomer.sequence: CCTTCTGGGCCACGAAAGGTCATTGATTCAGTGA
class.assignment: YES

# input for lookup
API: above_or_equal(metric=PBM binding z-score, cutoff=0.09) for item `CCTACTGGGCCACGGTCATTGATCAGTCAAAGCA`
YES
